Source of measurements: patent US20240327535A1

In this section we review reported kon values for a set of binders.
Target: T1, extracellular domain of human BCMA (human, UniProt Q02223 1-54)
T1 construct: amine-linked to Octet AR2G tips; also called hsBCMA; BCMA (human)
T1 sequence: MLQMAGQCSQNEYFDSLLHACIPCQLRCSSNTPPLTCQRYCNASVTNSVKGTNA
Test: Octet BLI; Fab 200 nM
The reply should contain only the number, in M⁻¹ s⁻¹.

Worked cases, kon given:
binder: AB200_Fab (D99D) (Fab, V domains shown) VH: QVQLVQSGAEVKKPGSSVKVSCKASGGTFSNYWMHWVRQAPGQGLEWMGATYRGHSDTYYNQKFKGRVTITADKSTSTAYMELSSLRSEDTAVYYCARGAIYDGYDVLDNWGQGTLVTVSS VL: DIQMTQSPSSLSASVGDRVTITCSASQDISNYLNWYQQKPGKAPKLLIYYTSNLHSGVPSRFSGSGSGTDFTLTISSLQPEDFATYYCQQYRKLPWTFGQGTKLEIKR
uom: M⁻¹ s⁻¹
observed: 170000
--
binder: AB200_Fab + D99Q (Fab, name in Kabat numbering, V domains shown) VH: QVQLVQSGAEVKKPGSSVKVSCKASGGTFSNYWMHWVRQAPGQGLEWMGATYRGHSDTYYNQKFKGRVTITADKSTSTAYMELSSLRSEDTAVYYCARGAIYQGYDVLDNWGQGTLVTVSS VL: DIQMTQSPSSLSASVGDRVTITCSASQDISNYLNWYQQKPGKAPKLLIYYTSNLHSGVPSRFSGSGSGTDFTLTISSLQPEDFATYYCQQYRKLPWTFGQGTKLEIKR
uom: M⁻¹ s⁻¹
observed: 170000
--
binder: AB200_Fab + D99H (Fab, V domains shown, also called AB200_D99H; D99H variant) VH: QVQLVQSGAEVKKPGSSVKVSCKASGGTFSNYWMHWVRQAPGQGLEWMGATYRGHSDTYYNQKFKGRVTITADKSTSTAYMELSSLRSEDTAVYYCARGAIYHGYDVLDNWGQGTLVTVSS VL: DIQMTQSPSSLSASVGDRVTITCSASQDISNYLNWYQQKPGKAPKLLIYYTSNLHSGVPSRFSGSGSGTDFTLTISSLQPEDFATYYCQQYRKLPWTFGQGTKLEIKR
uom: M⁻¹ s⁻¹
observed: 180000
--
binder: AB200_Fab + D99E (Fab, name in Kabat numbering, V domains shown) VH: QVQLVQSGAEVKKPGSSVKVSCKASGGTFSNYWMHWVRQAPGQGLEWMGATYRGHSDTYYNQKFKGRVTITADKSTSTAYMELSSLRSEDTAVYYCARGAIYEGYDVLDNWGQGTLVTVSS VL: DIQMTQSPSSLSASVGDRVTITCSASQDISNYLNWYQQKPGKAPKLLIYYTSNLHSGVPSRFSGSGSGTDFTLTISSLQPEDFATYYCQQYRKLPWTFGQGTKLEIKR
uom: M⁻¹ s⁻¹
observed: 150000
--
binder: AB200_Fab + D99S (Fab, name in Kabat numbering, V domains shown) VH: QVQLVQSGAEVKKPGSSVKVSCKASGGTFSNYWMHWVRQAPGQGLEWMGATYRGHSDTYYNQKFKGRVTITADKSTSTAYMELSSLRSEDTAVYYCARGAIYSGYDVLDNWGQGTLVTVSS VL: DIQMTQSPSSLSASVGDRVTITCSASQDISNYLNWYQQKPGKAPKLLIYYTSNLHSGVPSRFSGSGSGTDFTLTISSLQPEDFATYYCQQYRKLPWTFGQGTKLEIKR
uom: M⁻¹ s⁻¹
observed: 110000

**Query** Fill in kon for record AB200_Fab + D99N (Fab, name in Kabat numbering, V domains shown, also called D99N variant) VH: QVQLVQSGAEVKKPGSSVKVSCKASGGTFSNYWMHWVRQAPGQGLEWMGATYRGHSDTYYNQKFKGRVTITADKSTSTAYMELSSLRSEDTAVYYCARGAIYNGYDVLDNWGQGTLVTVSS VL: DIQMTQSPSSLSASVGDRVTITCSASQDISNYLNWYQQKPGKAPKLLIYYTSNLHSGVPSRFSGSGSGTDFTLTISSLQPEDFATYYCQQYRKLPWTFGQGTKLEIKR
**Result** 190000

**Query** Fill in kon for record AB200_Fab + D99T (Fab, name in Kabat numbering, V domains shown) VH: QVQLVQSGAEVKKPGSSVKVSCKASGGTFSNYWMHWVRQAPGQGLEWMGATYRGHSDTYYNQKFKGRVTITADKSTSTAYMELSSLRSEDTAVYYCARGAIYTGYDVLDNWGQGTLVTVSS VL: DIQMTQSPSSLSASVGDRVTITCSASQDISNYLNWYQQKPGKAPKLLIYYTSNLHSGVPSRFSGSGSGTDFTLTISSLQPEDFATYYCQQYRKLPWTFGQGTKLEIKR
**Result** 80000
